Target protein (sequence): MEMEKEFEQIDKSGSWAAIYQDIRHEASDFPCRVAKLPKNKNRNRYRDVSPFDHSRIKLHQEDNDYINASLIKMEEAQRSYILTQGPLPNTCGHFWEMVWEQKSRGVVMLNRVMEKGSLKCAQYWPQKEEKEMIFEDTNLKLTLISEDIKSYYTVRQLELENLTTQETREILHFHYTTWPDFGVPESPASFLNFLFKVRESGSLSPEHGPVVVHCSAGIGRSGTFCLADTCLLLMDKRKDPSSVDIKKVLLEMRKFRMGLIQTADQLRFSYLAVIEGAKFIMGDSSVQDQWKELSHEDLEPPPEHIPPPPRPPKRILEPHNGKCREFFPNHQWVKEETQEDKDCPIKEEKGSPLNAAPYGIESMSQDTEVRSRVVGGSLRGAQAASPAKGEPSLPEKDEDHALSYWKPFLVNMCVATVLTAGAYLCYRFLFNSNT
pIC50: −log10 of the molar value.
Metric name: pIC50

- Test smiles: "O=C(O)C(=O)N(c1ccccc1)c1ccc(CN(Cc2ccc(-c3csnn3)cc2)S(=O)(=O)c2ccccc2)cc1"
  pIC50: 3.63

A: O=C(O)C(=O)Nc1ccc(CN(Cc2ccc(-c3csnn3)cc2)S(=O)(=O)c2ccccc2)cc1C(=O)O
B: O=C(O)COc1ccc(S(=O)(=O)N(Cc2ccc(C(=O)C(=O)O)cc2)Cc2ccc(-c3csnn3)cc2)cc1
*Q* Task for the reader: decide whether A or B has the larger pIC50. Could you answer with the label of the item you picked?
*A* A
(A: 5.00, B: 4.56)

1: O=C(O)COc1ccc(S(=O)(=O)N(Cc2ccc(-c3csnn3)cc2)Cc2cc(F)c(OCC(=O)O)c(F)c2)cc1
2: O=C(O)COc1ccc(CN(Cc2ccc(-c3csnn3)cc2)S(=O)(=O)c2ccccc2)cc1
*Q* // which entry reports the smaller pIC50, 1 or 2 ? Could you answer with the label of the item you picked?
*A* 2

* * *

pIC50: −log10 of the molar value.
Listed here: molecules with reported pIC50 for Tyrosine-protein phosphatase non-receptor type 1 (Homo sapiens).
Metric name: pIC50

# annotated cases, reported pIC50 shown
- Test smiles: "O=P(O)(O)Cc1ccc(CN(Cc2ccc(-c3csnn3)cc2)S(=O)(=O)c2ccccc2)cc1"
  Measured: 3.91
- Test smiles: "O=C(O)COc1ccc(S(=O)(=O)N(Cc2ccc(-c3csnn3)cc2)Cc2ccc(C(F)(F)C(=O)O)cc2)cc1"
  Measured: 4.75
- Test smiles: "O=C(O)C(=O)Nc1ccc(CN(Cc2ccc(-c3csnn3)cc2)S(=O)(=O)c2ccccc2)cc1Br"
  Measured: 4.86
- Test smiles: "O=C(O)COc1ccc(S(=O)(=O)N(Cc2ccc(-c3csnn3)cc2)Cc2ccc(NC(=O)C(=O)O)c(C(=O)O)c2)cc1"
  Measured: 5.85
- Test smiles: "O=C(O)C(F)(F)Oc1ccc(CN(Cc2ccc(-c3csnn3)cc2)S(=O)(=O)c2ccccc2)cc1Br"
  Measured: 4.28

a: O=C(O)COc1ccc(S(=O)(=O)N(Cc2ccc(-c3csnn3)cc2)Cc2ccc(OCC(=O)O)c(Br)c2)cc1
b: O=C(O)COc1ccc(S(=O)(=O)N(Cc2ccc(-c3csnn3)cc2)Cc2cccc(OC(F)(F)C(=O)O)c2)cc1
*Q* Task for the reader: decide whether a or b has the larger pIC50. Could you answer with the label of the item you picked?
*A* a

* * *

Listed here: molecules with reported IC50 for Tyrosine-protein phosphatase non-receptor type 1 (Homo sapiens).
Metric name: IC50 (µM)

- Test smiles: "O=C(O)COc1ccc(S(=O)(=O)N(Cc2ccc(SCC(=O)O)cc2)Cc2ccc(-c3csnn3)cc2)cc1"
  IC50 / µM: 114

I: O=C(O)CSc1ccc(CN(Cc2ccc(-c3csnn3)cc2)S(=O)(=O)c2ccccc2)cc1
II: O=C(O)COc1ccc(CN(Cc2ccc(-c3csnn3)cc2)S(=O)(=O)c2ccccc2)cc1C(=O)O
*Q* // which entry reports the smaller IC50, I or II ? Could you answer with the label of the item you picked?
*A* II
(II: 12.2 µM, I: 115 µM)
